# METHOD_DESCRIPTION: recombinant UMI read abundance after kanamycin selection (control-corrected) (log10(CPM+1)); higher = more efficient recombination; extreme values may be limits of the assay; sequences stand for … in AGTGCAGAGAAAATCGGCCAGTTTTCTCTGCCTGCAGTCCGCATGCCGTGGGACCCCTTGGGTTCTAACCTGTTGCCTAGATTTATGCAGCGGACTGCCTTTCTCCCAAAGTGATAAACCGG…AGGTTGGTTTCACT; site = the 11-nt donor
recombinant UMI read abundance (log10) below 0.009 gives class 0; recombinant UMI read abundance (log10) at or above it gives class 1.

Consider the worked cases shown below.
> print(dat)
                           polymer.sequence  assigned.category
1  TCGATGGCATGGACCGGTTTTCCCGGTAATCCGTATTTGCC (site TCGATGGCTGG)            class 0
2  CTGCTACCATGGACCGGTTTTCCCGGTAATCCGTATTTGGT (site CTGCTACCTAA)            class 0
3  TGGCCGGCATGGACCGGTTTTCCCGGTAATCCGTATTTGTC (site TGGCCGGCTGG)            class 0
4  GTGCTTACATGGACCGGTTTTCCCGGTAATCCGTATTTGTA (site GTGCTTACTTA)            class 1
5  CTCCTTGCATGGACCGGTTTTCCCGGTAATCCGTATTTGTA (site CTCCTTGCTTA)            class 0

## Task In plain terms: is recorded recombinant UMI read abundance (log10) at least 0.009 for TAATCAGCATGGACCGGTTTTCCCGGTAATCCGTATTTGGG (site TAATGAGCTCC) ?
## Result class 0

## Task In plain terms: is recorded recombinant UMI read abundance (log10) at least 0.009 for TTGCTAGCATGGACCGGTTTTCCCGGTAATCCGTATTTGAA (site TCGCTAGCTTT) ?
## Result class 1

## Task In plain terms: is recorded recombinant UMI read abundance (log10) at least 0.009 for TGGACAACATGGACCGGTTTTCCCGGTAATCCGTATTTGTG (site TGGACAACTCA) ?
## Result class 1

## Task In plain terms: is recorded recombinant UMI read abundance (log10) at least 0.009 for ACAGTTTCATGGACCGGTTTTCCCGGTAATCCGTATTTGTA (site ACAGTTTCTTA) ?
## Result class 1

----------
# METHOD_DESCRIPTION: recombinant barcode read abundance after kanamycin selection (control-corrected) (log10(CPM+1)); higher = more efficient recombination; sequences stand for … in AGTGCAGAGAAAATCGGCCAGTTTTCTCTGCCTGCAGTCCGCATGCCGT…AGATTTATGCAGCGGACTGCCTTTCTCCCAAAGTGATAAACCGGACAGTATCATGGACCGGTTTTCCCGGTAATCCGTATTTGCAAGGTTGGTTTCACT; site = the 11-nt target
MEASUREMENT_NAME: recombinant barcode read abundance (log10)
Answer using only a numeral; do not append any unit.

Reference set, count: 10
> print(dat)
                            polymer.sequence  test.result
 1  GTTTGGACTTGGGTTCTAACCTGTTGCTA (site GTTTGGACTTA)        0.904
 2  GTGTGAACTTGGGTTCTAACCTGTTGCCG (site GTGTGAACTCG)        0.992
 3  CTACGTTCTTGGGTTCTAACCTGTTGCAC (site CTACGATCTGT)       0.0857
 4  CTCGAATCTTGGGTTCTAACCTGTTGCTT (site GGGATCCCTCC)        0.101
 5  CTCAAGACTTGGGTTCTAACCTGTTGCGG (site CTCTAGACTCA)        0.219
 6  CCACCGACTTGGGTTCTAACCTGTTGCCT (site GCACCAACTAG)        0.257
 7  CCATTCCCTTGGGTTCTAACCTGTTGCTA (site CCATTCCCTTA)         0.43
 8  GTAATCCCTTGGGTTCTAACCTGTTGCCA (site GTAATCCCTTG)         1.32
 9  GTCCAGCCTTGGGTTCTAACCTGTTGCAT (site CTCTAGCCTAT)       0.0778
10  ACTAGTGCTTGGGTTCTAACCTGTTGCCT (site ACTAGTGCTAG)        0.117

## Task Report recombinant barcode read abundance (log10) for GGTGGGTCTTGGGTTCTAACCTGTTGCAT (site GGTGGGTCTAA)
## Result 0.345

## Task Report recombinant barcode read abundance (log10) for CTACTAGCTTGGGTTCTAACCTGTTGCAG (site CTACTAGCTCT)
## Result 2.5

## Task Report recombinant barcode read abundance (log10) for AGTAGGGCTTGGGTTCTAACCTGTTGCAG (site CGTAGGGCTCG)
## Result 0.0704

## Task Report recombinant barcode read abundance (log10) for CATAGGCCTTGGGTTCTAACCTGTTGCAT (site CATAGTCCTAT)
## Result 0.105

## Task Report recombinant barcode read abundance (log10) for CTATGACCTTGGGTTCTAACCTGTTGCGT (site CTATGACCTAG)
## Result 0.211

## Task Report recombinant barcode read abundance (log10) for GTATCGTCTTGGGTTCTAACCTGTTGCCT (site GTATGGTCTAC)
## Result 0.111

## Task Report recombinant barcode read abundance (log10) for ATCACGTCTTGGGTTCTAACCTGTTGCCT (site CAGCATCCTCT)
## Result 0.0385

## Task Report recombinant barcode read abundance (log10) for TGTCCTGCTTGGGTTCTAACCTGTTGCCT (site GGTCCTGCTAG)
## Result 0.11

## Task Report recombinant barcode read abundance (log10) for CGCTGCCCTTGGGTTCTAACCTGTTGCTT (site CGCTGACCTAA)
## Result 0.102

## Task Report recombinant barcode read abundance (log10) for GAGAAGCCTTGGGTTCTAACCTGTTGCCT (site GAGAAGCCTAG)
## Result 2.12

## Task Report recombinant barcode read abundance (log10) for CTATATACTTGGGTTCTAACCTGTTGCCA (site CTATATACTTG)
## Result 0.154

## Task Report recombinant barcode read abundance (log10) for CATAGCTCTTGGGTTCTAACCTGTTGCCT (site TATAGCTCTAG)
## Result 0.337

## Task Report recombinant barcode read abundance (log10) for ATACCACCTTGGGTTCTAACCTGTTGCCT (site ATACCACCTAG)
## Result 1.77

## Task Report recombinant barcode read abundance (log10) for TGTCATGCTTGGGTTCTAACCTGTTGCGT (site CTCACACCTCT)
## Result 0.238

----------
# METHOD_DESCRIPTION: recombinant UMI read abundance after kanamycin selection (control-corrected) (log10(CPM+1)); higher = more efficient recombination; extreme values may be limits of the assay; sequences stand for … in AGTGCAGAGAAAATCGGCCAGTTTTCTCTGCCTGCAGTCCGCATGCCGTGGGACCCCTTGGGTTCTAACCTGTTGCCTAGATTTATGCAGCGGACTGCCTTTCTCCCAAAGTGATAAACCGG…AGGTTGGTTTCACT; site = the 11-nt donor
MEASUREMENT_NAME: recombinant UMI read abundance (log10)

Reference set, count: 4
> print(dat)
                           polymer.sequence  test.result
1  ATTGAAACATGGACCGGTTTTCCCGGTAATCCGTATTTGGT (site ATTGATACTAC)       0.0144
2  CAGAGTCCATGGACCGGTTTTCCCGGTAATCCGTATTTGTT (site CAGAGTCCTAA)         1.92
3  CACGTCACATGGACCGGTTTTCCCGGTAATCCGTATTTGGG (site CACGTCACTCC)       0.0104
4  CCCATAACATGGACCGGTTTTCCCGGTAATCCGTATTTGTC (site CCCATATCTGA)            0

## Task Report recombinant UMI read abundance (log10) for CACAGGTCATGGACCGGTTTTCCCGGTAATCCGTATTTGAT (site CACAGGTCTAT)
## Result 2.14

## Task Report recombinant UMI read abundance (log10) for TGTACTCCATGGACCGGTTTTCCCGGTAATCCGTATTTGAC (site TGTACGCCTGT)
## Result 0

----------
# METHOD_DESCRIPTION: recombinant UMI read abundance after kanamycin selection (control-corrected) (log10(CPM+1)); higher = more efficient recombination; extreme values may be limits of the assay; sequences stand for … in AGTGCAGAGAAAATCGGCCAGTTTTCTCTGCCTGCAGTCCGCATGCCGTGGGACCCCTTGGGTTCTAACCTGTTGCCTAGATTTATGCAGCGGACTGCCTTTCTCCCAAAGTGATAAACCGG…AGGTTGGTTTCACT; site = the 11-nt donor
MEASUREMENT_NAME: recombinant UMI read abundance (log10)

Reference set, count: 8
> print(dat)
                           polymer.sequence                        measurement.name  test.result
1  CCCGCTCCATGGACCGGTTTTCCCGGTAATCCGTATTTGCA (site CCCGATCCTTG)  recombinant UMI read abundance (log10)            0
2  TTTGTGTCATGGACCGGTTTTCCCGGTAATCCGTATTTGCG (site TTTGTGTCTCG)  recombinant UMI read abundance (log10)        0.535
3  ACACATCCATGGACCGGTTTTCCCGGTAATCCGTATTTGTC (site ACACATCCTGA)  recombinant UMI read abundance (log10)         1.53
4  GTCAAAGCATGGACCGGTTTTCCCGGTAATCCGTATTTGGT (site GTCAAAGCTAC)  recombinant UMI read abundance (log10)         2.11
5  TCTGCAACATGGACCGGTTTTCCCGGTAATCCGTATTTGAA (site TCTGCAACTTT)  recombinant UMI read abundance (log10)      0.00363
6  CCTAATACATGGACCGGTTTTCCCGGTAATCCGTATTTGGC (site CTTAATACTGC)  recombinant UMI read abundance (log10)            0
7  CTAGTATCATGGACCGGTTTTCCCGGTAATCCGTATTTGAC (site CTAGTATCTTT)  recombinant UMI read abundance (log10)          2.1
8  CACGGCCCATGGACCGGTTTTCCCGGTAATCCGTATTTGTT (site CACGGCCCTTA)  recombinant UMI read abundance (log10)       0.0328

// next entry
## Task Report recombinant UMI read abundance (log10) for GAGCTCACATGGACCGGTTTTCCCGGTAATCCGTATTTGAT (site GAGCACACTAT)
## Result 0.159
